target: AKT (Homo sapiens, UniProt Q9Y243); construct: Kinases are expressed as either kinase domains or full length constructs; made in house; assay: Kinase inhibition assay (33P transfer), AKT; type: biochemical; details: Table 2, kinase inhibition class; read-out: AKT3-1
Sequence (Q9Y243 whole entry, the tested form may be a part): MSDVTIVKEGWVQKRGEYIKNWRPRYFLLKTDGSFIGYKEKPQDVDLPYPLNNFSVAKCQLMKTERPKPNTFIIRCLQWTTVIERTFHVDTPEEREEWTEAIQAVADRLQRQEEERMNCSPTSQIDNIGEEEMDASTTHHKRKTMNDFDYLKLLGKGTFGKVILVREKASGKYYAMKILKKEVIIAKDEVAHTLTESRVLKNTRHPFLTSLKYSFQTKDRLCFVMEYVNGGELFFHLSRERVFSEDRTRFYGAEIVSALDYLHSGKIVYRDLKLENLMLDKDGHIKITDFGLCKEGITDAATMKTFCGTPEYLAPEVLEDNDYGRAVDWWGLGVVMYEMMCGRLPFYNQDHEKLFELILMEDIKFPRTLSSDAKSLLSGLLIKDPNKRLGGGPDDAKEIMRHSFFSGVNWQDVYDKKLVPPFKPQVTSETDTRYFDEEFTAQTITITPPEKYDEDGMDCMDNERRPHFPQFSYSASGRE
pIC50: −log10 of the molar value.
endpointLabel: pIC50

pIC50 lookup needed for COc1cc(Nc2ncnc(-n3c(=O)[nH]c4ccccc43)n2)cc(OC)c1OCCN1CCOCC1 , thanks.
< 5.04

Param item: COc1cc(Nc2ncnc(-n3c(NCc4ccccc4Cl)nc4ccccc43)n2)cc(OC)c1OC
< 5.06

COc1cc(Nc2ncnc(Nc3cccc4cccnc34)n2)cc(OC)c1OC , same question.
< 4.95

* * *

molecular target: ErbB2 (Homo sapiens); construct: Kinases are expressed as either kinase domains or full length constructs; made in house; assay: Kinase inhibition assay (33P transfer), ErbB2; format: biochemical; conditions: read-out: ErbB2-2
Sequence (P04626 23-1255, species assumed): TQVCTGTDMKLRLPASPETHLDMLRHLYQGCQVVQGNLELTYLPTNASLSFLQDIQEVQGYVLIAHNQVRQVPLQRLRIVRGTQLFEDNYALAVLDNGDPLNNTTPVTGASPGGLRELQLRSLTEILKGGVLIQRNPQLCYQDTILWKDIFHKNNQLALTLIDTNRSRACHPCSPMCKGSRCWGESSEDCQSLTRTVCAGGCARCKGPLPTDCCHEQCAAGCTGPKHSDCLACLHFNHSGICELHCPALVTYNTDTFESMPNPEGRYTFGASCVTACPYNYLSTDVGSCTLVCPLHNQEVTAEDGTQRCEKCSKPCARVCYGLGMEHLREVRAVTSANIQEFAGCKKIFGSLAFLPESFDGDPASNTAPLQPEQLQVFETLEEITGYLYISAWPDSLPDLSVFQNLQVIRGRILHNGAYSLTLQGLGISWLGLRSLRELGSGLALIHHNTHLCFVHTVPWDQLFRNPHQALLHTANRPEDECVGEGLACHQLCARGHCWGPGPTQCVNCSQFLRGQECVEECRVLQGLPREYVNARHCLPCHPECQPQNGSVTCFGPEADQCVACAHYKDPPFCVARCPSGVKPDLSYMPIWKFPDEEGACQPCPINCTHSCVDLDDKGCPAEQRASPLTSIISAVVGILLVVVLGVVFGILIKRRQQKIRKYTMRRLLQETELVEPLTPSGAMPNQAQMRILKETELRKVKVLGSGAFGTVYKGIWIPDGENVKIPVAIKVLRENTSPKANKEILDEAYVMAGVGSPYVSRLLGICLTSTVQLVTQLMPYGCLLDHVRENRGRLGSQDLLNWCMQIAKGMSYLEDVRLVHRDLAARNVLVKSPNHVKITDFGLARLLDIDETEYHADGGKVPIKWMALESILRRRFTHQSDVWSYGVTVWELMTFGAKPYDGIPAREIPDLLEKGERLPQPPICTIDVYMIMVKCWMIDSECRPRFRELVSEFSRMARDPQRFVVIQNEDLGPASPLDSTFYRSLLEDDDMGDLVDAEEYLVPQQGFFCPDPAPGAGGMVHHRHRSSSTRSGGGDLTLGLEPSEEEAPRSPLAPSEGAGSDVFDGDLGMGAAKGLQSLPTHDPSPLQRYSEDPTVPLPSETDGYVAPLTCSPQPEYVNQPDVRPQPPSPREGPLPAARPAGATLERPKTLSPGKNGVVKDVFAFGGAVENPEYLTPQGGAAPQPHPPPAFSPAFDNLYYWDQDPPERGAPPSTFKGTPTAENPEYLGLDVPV
endpointLabel: IC50

Some compounds with recorded IC50:
>>> endpointresult("COc1ccc(Nc2ncnc(NCC(O)c3ccccc3)n2)cc1OC (centres unmarked) [Compound 780]")
"> 12.2 µM"
>>> endpointresult("COc1cc(Nc2ncnc(Nc3ccc4c(cnn4Cc4ccccc4)c3)n2)cc(OC)c1OCCN1CCOCC1 [Compound 559]")
"< 0.687 µM"
>>> endpointresult("CNS(=O)(=O)Cc1ccc(Nc2ncnc(Nc3cc(-c4ccco4)[nH]n3)n2)cc1 [Compound 888]")
"0.938 to 5.63 µM"

Which IC50 reading was recorded for the compound COc1cc(Nc2ncnc(-c3cccnc3NCc3ccc(F)cc3)n2)cc(OC)c1OCCN1CCOCC1 [Compound 564] ?
> 8.01 µM

Further, for CC(C)Nc1ncccc1-c1ncnc(Nc2cccc(CC(=O)O)c2)n1 [Compound 1097] ?
> 12.3 µM

Do the same for COc1ccc(Nc2ncnc(N(C)c3ccc(Cl)c(Cl)c3)n2)cc1OC [Compound 758] please
< 0.985 µM

Now consider COc1cc(Nc2ncnc(-n3c(NCc4ncc[nH]4)nc4ccccc43)n2)cc(OC)c1OC [Compound 583] .
> 9.5 µM

What about this compound? COc1ccc(Nc2ncnc(-n3c(N)nc4ccccc43)n2)cc1 [Compound 656]
7.2 to 10.5 µM

// same read-out, input: COC(=O)c1cccc(Nc2ncnc(-n3c(NCc4ccc(OC)cc4)nc4ccccc43)n2)c1 [Compound 1068]
4.98 to 7.27 µM

And what about the compound COc1cc(Nc2ncnc(-c3cccnc3Nc3cccc(C(N)=O)c3)n2)cc(OC)c1OC [Compound 1090] ?
> 9.5 µM

Please give the result for COc1cc(Nc2ncnc(-n3c(NCc4cccc(C)c4)nc4ccccc43)n2)cc(OC)c1OC [Compound 515] too.
> 9.04 µM

Now this one: COc1ccc(Nc2ncnc(N(C)c3ccc(C(=O)O)cc3)n2)cc1OC [Compound 860]
9.18 to 11.8 µM

Quick one: COC(=O)c1ccc(-c2cc(Nc3ncnc(NCc4ccccc4OC)n3)[nH]n2)cc1 [Compound 815]
0.927 to 5.56 µM

Try this compound too: CCOC(=O)N1CCC(Nc2ncnc(N3CCCc4cc(C)ccc43)n2)CC1 [Compound 765]
> 11.3 µM

Subsequent entry: COC(=O)c1ccc(-c2cc(Nc3ncnc(Nc4cccc(CC(=O)O)c4)n3)[nH]n2)cc1 [Compound 604]
0.898 to 5.39 µM

Lookup Nc1nc2ccccc2n1-c1ncnc(Nc2cccc(CC(=O)NCc3ccccn3)c2)n1 [Compound 956]
> 9.97 µM

Check COc1ccc(Nc2ncnc(N(C)c3ccc(F)cc3F)n2)cc1OC [Compound 801] too.
9.37 to 12.1 µM

* * *

Listing of entries alongside the reported IC50.
Target: EGFR (Homo sapiens, UniProt P00533)
Construct: Kinases are expressed as either kinase domains or full length constructs; made in house
Sequence (P00533 25-1210, species assumed): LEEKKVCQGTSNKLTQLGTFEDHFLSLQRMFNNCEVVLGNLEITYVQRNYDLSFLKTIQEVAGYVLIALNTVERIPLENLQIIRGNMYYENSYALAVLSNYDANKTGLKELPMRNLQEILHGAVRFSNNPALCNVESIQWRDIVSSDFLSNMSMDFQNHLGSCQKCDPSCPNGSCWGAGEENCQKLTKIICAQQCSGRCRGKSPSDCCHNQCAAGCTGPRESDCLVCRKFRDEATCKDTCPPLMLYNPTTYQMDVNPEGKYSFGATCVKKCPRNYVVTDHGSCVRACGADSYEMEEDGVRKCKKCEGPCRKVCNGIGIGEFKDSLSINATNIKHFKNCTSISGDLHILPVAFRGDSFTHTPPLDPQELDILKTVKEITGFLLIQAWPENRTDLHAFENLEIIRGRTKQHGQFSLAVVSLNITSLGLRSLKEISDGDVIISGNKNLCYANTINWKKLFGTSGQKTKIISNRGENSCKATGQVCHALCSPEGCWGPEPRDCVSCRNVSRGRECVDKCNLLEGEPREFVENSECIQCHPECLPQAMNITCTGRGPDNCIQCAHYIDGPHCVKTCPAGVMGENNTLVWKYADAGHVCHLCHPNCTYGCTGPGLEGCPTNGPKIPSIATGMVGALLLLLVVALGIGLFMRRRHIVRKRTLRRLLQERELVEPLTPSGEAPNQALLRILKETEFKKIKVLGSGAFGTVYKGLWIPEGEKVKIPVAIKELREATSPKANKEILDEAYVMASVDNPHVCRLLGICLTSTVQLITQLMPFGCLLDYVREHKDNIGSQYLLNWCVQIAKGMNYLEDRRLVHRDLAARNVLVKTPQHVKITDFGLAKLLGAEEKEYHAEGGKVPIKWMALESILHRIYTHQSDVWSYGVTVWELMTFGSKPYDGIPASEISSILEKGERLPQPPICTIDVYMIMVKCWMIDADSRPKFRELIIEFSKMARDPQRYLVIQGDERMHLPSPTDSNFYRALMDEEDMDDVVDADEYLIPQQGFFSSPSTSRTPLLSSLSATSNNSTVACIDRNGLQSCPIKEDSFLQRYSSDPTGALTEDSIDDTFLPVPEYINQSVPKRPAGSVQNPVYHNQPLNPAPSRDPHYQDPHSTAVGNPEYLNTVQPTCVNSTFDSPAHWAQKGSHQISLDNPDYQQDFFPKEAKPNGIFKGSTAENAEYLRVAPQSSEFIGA
Test: Kinase inhibition assay (33P transfer), EGFR
Format: biochemical
Conditions: Table 2, kinase inhibition class; read-out: EGFR-1
Method: The inhibitor compounds described herein are screened in the following manner. […] Kinases are expressed as either kinase domains or full length constructs fused to glutathione S-transferase (GST) or polyHistidine tagged fusion proteins in either E. colior Baculovirus-High Five expression systems. […] Kinase activity and inhibition are measured essentially by established protocols (Braunwalder et al., 1996). […]

>>> endpointresult("COc1cc(Nc2ncnc(-n3c(NCCCCO)nc4ccccc43)n2)cc(OC)c1OC [Compound 392]")
"> 9.67 µM"

What value of measured IC50 is listed for CCOc1cccc(Nc2ncnc(Nc3ccc(OC)c(OC)c3)n2)c1 [Compound 783] ?
> 12.2 µM

What do we get for Cc1cccc(Nc2ncnc(Nc3cc(-c4ccccc4)n[nH]3)n2)c1 [Compound 1012] ?
< 1.16 µM

Now this one: CN(c1cccc(Cl)c1)c1ncnc(Nc2ccc3[nH]ccc3c2)n1 [Compound 714]
< 1.14 µM

And the next one, Cc1ccc2c(c1)CCCN2c1ncnc(NCC2CCCO2)n1 (stereo not drawn) [Compound 759] ?
> 13.8 µM

Now consider C=CCNc1ncccc1-c1ncnc(Nc2cc(OC)c(OC)c(OC)c2)n1 [Compound 1076] and answer again.
> 11.4 µM

Param item: NC(=O)c1ccc(Nc2ncnc(-c3cccnc3NCc3ccccc3)n2)cc1 [Compound 1082]
1.01 to 6.04 µM

Now the same for O=c1[nH]c2ccccc2n1-c1ncnc(Nc2cnc3ccccc3c2)n1 [Compound 508]
> 12.7 µM

Could you do the same for COc1cc(Nc2ncnc(Nc3ccc4nn(Cc5ccccc5)cc4c3)n2)cc(OC)c1OC [Compound 555] , please?
< 0.827 µM

* * *

# IC50 listing for each entry below
Target: Itk (Homo sapiens, UniProt Q08881)
Construct: Kinases are expressed as either kinase domains or full length constructs; made in house
Sequence (Q08881 whole entry, species assumed, the tested form may be a part): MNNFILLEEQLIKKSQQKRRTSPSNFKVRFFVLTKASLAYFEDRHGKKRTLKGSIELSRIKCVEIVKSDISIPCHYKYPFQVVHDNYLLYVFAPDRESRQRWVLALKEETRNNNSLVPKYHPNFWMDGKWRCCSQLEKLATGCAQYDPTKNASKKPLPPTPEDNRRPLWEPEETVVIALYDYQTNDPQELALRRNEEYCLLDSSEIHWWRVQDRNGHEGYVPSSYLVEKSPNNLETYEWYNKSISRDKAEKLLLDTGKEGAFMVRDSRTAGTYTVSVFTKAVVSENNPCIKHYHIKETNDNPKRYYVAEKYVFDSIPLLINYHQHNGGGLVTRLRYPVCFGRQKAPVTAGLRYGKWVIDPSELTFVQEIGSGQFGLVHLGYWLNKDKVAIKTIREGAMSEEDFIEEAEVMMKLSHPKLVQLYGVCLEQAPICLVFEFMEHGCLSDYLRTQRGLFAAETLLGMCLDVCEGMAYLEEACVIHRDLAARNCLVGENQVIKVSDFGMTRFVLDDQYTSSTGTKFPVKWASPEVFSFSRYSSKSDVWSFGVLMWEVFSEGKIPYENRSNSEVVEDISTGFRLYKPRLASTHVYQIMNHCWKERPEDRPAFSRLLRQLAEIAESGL
Experiment: Kinase inhibition assay (33P transfer), Itk
Format: biochemical
Conditions: read-out: Itk-1
Experimental: The inhibitor compounds described herein are screened in the following manner. […] Kinases are expressed as either kinase domains or full length constructs fused to glutathione S-transferase (GST) or polyHistidine tagged fusion proteins in either E. colior Baculovirus-High Five expression systems. […] Kinase activity and inhibition are measured essentially by established protocols (Braunwalder et al., 1996). […]

>>> endpointresult("Cc1ccc2c(c1)CCCN2c1ncnc(NCCc2cccnc2)n1")
"> 13 µM"
>>> endpointresult("COc1ccc(Nc2ncnc(NCCCN3CCN(C)CC3)n2)cc1OC")
"> 11.6 µM"
>>> endpointresult("Cc1ccc(Nc2ncnc(Nc3cccc(CC(=O)O)c3)n2)cc1O")
"> 12.8 µM"
>>> endpointresult("Brc1cccc(Nc2ncnc(Nc3cccc(Br)c3)n2)c1")
"8.31 to 10.7 µM"
>>> endpointresult("COc1cc(Nc2ncnc(Nc3cccc(CC(=O)O)c3)n2)cc(OC)c1OC")
"> 10.9 µM"
>>> endpointresult("COc1cc(Nc2ncnc(-c3cccnc3N)n2)cc(OC)c1OC")
"9.88 to 12.7 µM"

For the compound shown here, CCOc1cccc(Nc2ncnc(Nc3ccc(OC)c(OC)c3)n2)c1 , give the reported IC50.
> 12.2 µM

Also, CN(c1cccc(Cl)c1)c1ncnc(NC2CCN(Cc3ccccc3)CC2)n1 please.
> 11 µM

Can you handle CN(c1cccc(Cl)c1)c1ncnc(N[C@@H]2CCN(Cc3ccccc3)C2)n1 next?
> 11.4 µM

* * *

target: PDGFRB (Homo sapiens, UniProt P09619); construct: Kinases are expressed as either kinase domains or full length constructs; made in house; assay: Kinase inhibition assay (33P transfer), PDGFRB; assay type: biochemical; conditions: read-out: PDGFRB-1
Sequence (P09619 33-1106, species assumed): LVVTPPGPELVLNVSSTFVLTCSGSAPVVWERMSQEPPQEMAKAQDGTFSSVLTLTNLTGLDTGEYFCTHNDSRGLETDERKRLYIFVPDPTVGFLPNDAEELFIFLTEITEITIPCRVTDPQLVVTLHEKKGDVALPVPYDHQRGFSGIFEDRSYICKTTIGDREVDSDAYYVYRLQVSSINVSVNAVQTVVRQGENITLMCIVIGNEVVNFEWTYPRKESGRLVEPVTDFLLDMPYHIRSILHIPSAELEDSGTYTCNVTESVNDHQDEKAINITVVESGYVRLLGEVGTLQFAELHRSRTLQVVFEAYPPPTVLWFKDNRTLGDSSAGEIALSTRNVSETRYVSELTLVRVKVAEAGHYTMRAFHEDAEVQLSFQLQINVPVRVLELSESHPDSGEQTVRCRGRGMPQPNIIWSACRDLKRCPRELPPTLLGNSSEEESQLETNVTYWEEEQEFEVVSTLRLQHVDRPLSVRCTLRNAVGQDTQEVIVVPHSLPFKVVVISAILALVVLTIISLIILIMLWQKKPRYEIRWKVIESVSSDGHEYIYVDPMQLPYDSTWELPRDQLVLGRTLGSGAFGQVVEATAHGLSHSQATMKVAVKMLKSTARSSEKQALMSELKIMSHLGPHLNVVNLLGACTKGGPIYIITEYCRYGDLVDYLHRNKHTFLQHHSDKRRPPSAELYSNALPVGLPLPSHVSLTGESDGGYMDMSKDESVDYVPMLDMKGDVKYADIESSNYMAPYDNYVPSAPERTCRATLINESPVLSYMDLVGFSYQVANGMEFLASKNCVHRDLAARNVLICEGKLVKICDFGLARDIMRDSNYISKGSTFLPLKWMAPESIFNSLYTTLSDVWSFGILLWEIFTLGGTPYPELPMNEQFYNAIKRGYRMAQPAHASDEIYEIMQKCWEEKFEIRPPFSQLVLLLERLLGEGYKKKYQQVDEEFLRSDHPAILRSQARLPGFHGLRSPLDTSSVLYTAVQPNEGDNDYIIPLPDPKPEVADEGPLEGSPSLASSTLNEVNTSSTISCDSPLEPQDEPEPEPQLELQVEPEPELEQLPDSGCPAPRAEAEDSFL
Form field: IC50 (one value per entry).

>>> endpointresult("CC(C)Nc1ncccc1-c1ncnc(Nc2ccc(C(N)=O)cc2)n1")
"1.14 to 6.87 µM"
>>> endpointresult("Nc1nc2ccccc2n1-c1ncnc(Nc2cccc(-c3cnco3)c2)n1")
"< 1.08 µM"
>>> endpointresult("COc1cc(Nc2ncnc(N3CCc4ccccc43)n2)cc(OC)c1OC")
"< 1.05 µM"

Look up IC50 for this compound: Nc1nc2ccccc2n1-c1ncnc(Nc2cccc(Cl)c2)n1
1.18 to 7.11 µM

What about this compound? COc1cc(Nc2ncnc(-n3c(NC(C)=O)nc4ccccc43)n2)cc(OC)c1OC
0.919 to 5.51 µM

* * *

Entries and their IC50
biological target: PDGFRB (Homo sapiens, UniProt P09619); construct: Kinases are expressed as either kinase domains or full length constructs; made in house; test: Kinase inhibition assay (33P transfer), PDGFRB; assay type: biochemical; conditions: read-out: PDGFRB-1

These solved cases illustrate the format of a correct answer.
>>> endpointresult("COc1cc(CNc2ncnc(Nc3cc(-c4ccco4)n[nH]3)n2)cc(OC)c1OC [Compound 997]")
"> 10.6 µM"
>>> endpointresult("COC(=O)c1ccc(-c2cc(Nc3ncnc(Nc4cc(F)cc(F)c4)n3)[nH]n2)cc1 [Compound 810]")
"> 10.6 µM"

Give IC50 (PDGFRB (Homo sapiens, UniProt P09619)) of the following compound: COc1ccc(CCNc2ncnc(N3CCCc4cc(C)ccc43)n2)cc1OC [Compound 771]
> 11.1 µM

Also, COc1ccc(Nc2ncnc(N(C)c3ccc(S(=O)(=O)O)cc3)n2)cc1OC [Compound 798] please.
0.958 to 5.75 µM
